Source of measurements: the supplement of paper PMC10065799

- TARGET OF ASSAY: SHP2-C SH2;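 note: peptide library displayed on the E. coli surface as eCPX fusions, selected cells deep-sequenced, score is each peptide's frequency after selection divided by its frequency in the input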
- TEST DETAILS: SH2 binding enrichment of the phosphorylated peptide, bacterial display (enrichment ratio); higher = better substrate or ligand; peptides without Tyr show the background
Give SH2 binding enrichment for every item shown.
Answer with the value's number alone.

Could you tell me which SH2 binding enrichment is on file for AGREIYESDKC [TTN_Y4424] ?
1.4

Could you tell me which SH2 binding enrichment is on file for GRRNTCFASIA [ACADM_Y352_Y352C_YF] ?
0.565

Could you tell me which SH2 binding enrichment is on file for KPSLKYVTYGN [GALNTL5_Y404_G401S] ?
0.985

Could you tell me which SH2 binding enrichment is on file for VHNLDYYKETT [FGFR3_Y647_K650E] ?
0.585

Could you tell me which SH2 binding enrichment is on file for DNAYQYMLTDR [MYH7_Y164] ?
0.664

Could you tell me which SH2 binding enrichment is on file for SGGGLYRDMGA [CBX8_Y321] ?
0.589

Could you tell me which SH2 binding enrichment is on file for FHKALYTVRSF [PDE6C_Y266_YF] ?
0.648

Could you tell me which SH2 binding enrichment is on file for HLTNQFMQRVA [PABPC4_Y382_Y382F] ?
0.733

Could you tell me which SH2 binding enrichment is on file for MEVGQYIFVKC [CYBB_Y324] ?
0.651

Could you tell me which SH2 binding enrichment is on file for RKGIRYLTSGL [PIGA_Y82] ?
0.709

* * *

- Test system: c-Abl (mouse)
- TEST DETAILS: phosphorylation enrichment, bacterial display (enrichment ratio); higher = better substrate or ligand; peptides without Tyr show the background
// n strictly below 1 in phosphorylation enrichment; y otherwise

phosphorylation enrichment >= 1 for KKCTRYIDCAL [ASPA_Y64_D68A] ?
n

phosphorylation enrichment >= 1 for TFGQVYKGPHV [TNIK_Y40_R43P_YF] ?
n

phosphorylation enrichment >= 1 for NQELIYEGRRL [TBK1_Y354] ?
y

phosphorylation enrichment >= 1 for PPLMLYNPTTY [EGFR_Y270] ?
n

phosphorylation enrichment >= 1 for SSSPTYPDLPF [GLI3_Y168] ?
n

phosphorylation enrichment >= 1 for CIILLYIFLKN [STXBP1_Y411_R406C] ?
n

* * *

- TARGET OF ASSAY: FGFR3 (UniProt P22607)
- Sequence (P22607 whole entry, looked up): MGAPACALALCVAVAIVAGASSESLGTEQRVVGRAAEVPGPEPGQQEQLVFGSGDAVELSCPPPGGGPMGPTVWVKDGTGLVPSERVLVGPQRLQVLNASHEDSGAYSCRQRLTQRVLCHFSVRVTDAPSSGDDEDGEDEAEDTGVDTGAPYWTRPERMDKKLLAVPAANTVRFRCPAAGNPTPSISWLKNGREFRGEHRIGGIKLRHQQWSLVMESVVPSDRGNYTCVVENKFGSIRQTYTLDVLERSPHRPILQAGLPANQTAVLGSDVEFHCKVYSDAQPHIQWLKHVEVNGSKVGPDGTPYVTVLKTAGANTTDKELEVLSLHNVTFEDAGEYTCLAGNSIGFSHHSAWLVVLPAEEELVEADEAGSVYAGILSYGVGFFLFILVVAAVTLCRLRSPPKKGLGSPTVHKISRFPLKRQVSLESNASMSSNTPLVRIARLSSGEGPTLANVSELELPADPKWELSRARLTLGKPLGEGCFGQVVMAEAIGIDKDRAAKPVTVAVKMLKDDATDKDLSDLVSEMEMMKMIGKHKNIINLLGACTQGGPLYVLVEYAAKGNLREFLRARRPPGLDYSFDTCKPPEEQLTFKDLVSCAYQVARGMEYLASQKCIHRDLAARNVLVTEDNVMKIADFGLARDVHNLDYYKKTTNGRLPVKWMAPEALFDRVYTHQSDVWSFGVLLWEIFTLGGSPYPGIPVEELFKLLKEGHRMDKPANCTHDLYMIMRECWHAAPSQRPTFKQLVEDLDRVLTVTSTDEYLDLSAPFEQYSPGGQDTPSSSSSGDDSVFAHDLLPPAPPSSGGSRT
- TEST DETAILS: phosphorylation enrichment, bacterial display (enrichment ratio); higher = better substrate or ligand; peptides without Tyr show the background
Give phosphorylation enrichment for every item shown.
Answer with the value's number alone.

Could you tell me which phosphorylation enrichment is on file for PQGVGYPPQQQ [EP300_Y2219] ?
0.871

Could you tell me which phosphorylation enrichment is on file for QQLDEYQELLD [LMNA_Y359] ?
1.18

Could you tell me which phosphorylation enrichment is on file for YEDTLYTVLHR [UNC13D_Y61_A59T] ?
2.09

Could you tell me which phosphorylation enrichment is on file for RGESFYQDRMN [RARS_Y338] ?
0.512

Could you tell me which phosphorylation enrichment is on file for FADGVYLALEE [DUOX2_Y70_Q71L_YF] ?
1.02

Could you tell me which phosphorylation enrichment is on file for TGSFTCEAVEL [MTMR14_Y462_Y462C] ?
0.811

Could you tell me which phosphorylation enrichment is on file for FFIMMYTGSNV [DNAJC13_Y1131] ?
0.782

Could you tell me which phosphorylation enrichment is on file for SPRDTYSDRIG [CTPS1_Y567_S571I] ?
0.494

Could you tell me which phosphorylation enrichment is on file for RVEDAYILTCN [CCT6A_Y229] ?
0.689

Could you tell me which phosphorylation enrichment is on file for FSQETYFRVSN [ABCD1_Y180_Q178E_YF] ?
1.23

Could you tell me which phosphorylation enrichment is on file for FASALYGQRRS [FGF11_Y162_R163G_YF] ?
0.442

Could you tell me which phosphorylation enrichment is on file for REGKIYEYNQV [ZNF665_Y162_H157R] ?
0.898

Could you tell me which phosphorylation enrichment is on file for GRVYVYRLSEQ [ITGAE_Y551] ?
0.661

Could you tell me which phosphorylation enrichment is on file for GGDAVYTNGAI [RFX2_Y82] ?
0.532

Could you tell me which phosphorylation enrichment is on file for APGDAYGDAGY [SYP_Y250] ?
0.615

Could you tell me which phosphorylation enrichment is on file for FTAVGYHKHIT [NOMO1_Y1137] ?
0.614

Could you tell me which phosphorylation enrichment is on file for LIPIKYKAMKK [MYD88_Y257] ?
0.92

Could you tell me which phosphorylation enrichment is on file for ATVRPYRPYII [LRP5_Y1528_A1525V] ?
0.591

Could you tell me which phosphorylation enrichment is on file for ADLTEYLSTHY [UQCRC1_Y219] ?
0.697

Could you tell me which phosphorylation enrichment is on file for FFDANCDGKEF [MAPRE2_Y162_Y162C_YF] ?
0.662

Could you tell me which phosphorylation enrichment is on file for YMRGMYFRMKD [PLA2G6_Y541] ?
0.589

Could you tell me which phosphorylation enrichment is on file for TFGQVYKGPHV [TNIK_Y40_R43P_YF] ?
0.426

Could you tell me which phosphorylation enrichment is on file for RFLRGYRQHAF [HLA-A_Y137_D140H_YF] ?
0.701

Could you tell me which phosphorylation enrichment is on file for SHLEDYPFNAE [AKR1B10_Y310] ?
0.771

Could you tell me which phosphorylation enrichment is on file for MGCVNYGAFIN [GLB1_Y485_R482C_YF] ?
0.825

Could you tell me which phosphorylation enrichment is on file for FHKALYTVRSF [PDE6C_Y266_YF] ?
0.549

Could you tell me which phosphorylation enrichment is on file for KGEDFYCVTRH [FHL1_Y149_C153R] ?
0.715

Could you tell me which phosphorylation enrichment is on file for FSDQVYRQRRK [TH_Y230] ?
0.568

Could you tell me which phosphorylation enrichment is on file for FEEDSYSHVMA [FDPS_Y388_I391V_YF] ?
0.901

Could you tell me which phosphorylation enrichment is on file for SGGGSYGSGGG [KRT1_Y539] ?
0.372

Could you tell me which phosphorylation enrichment is on file for NKEAIYSGFIR [SMCHD1_Y283_YF] ?
0.557

Could you tell me which phosphorylation enrichment is on file for SSNTEYLSASD [INSR_Y999_P997T] ?
0.615

Could you tell me which phosphorylation enrichment is on file for EDDIIYTQDFT [STK11_Y362] ?
0.821

Could you tell me which phosphorylation enrichment is on file for MAFDRYVAICS [OR8D4_Y123_C120Y_YF] ?
0.726

Could you tell me which phosphorylation enrichment is on file for FQSKHYACIRQ [TIMP3_Y182_YF] ?
0.512

Could you tell me which phosphorylation enrichment is on file for DEDFLCREELA [POR_Y575_Y575C_YF] ?
0.846

Could you tell me which phosphorylation enrichment is on file for SESSFYKSLNL [NGEF_Y289_A286S_YF] ?
0.816

Could you tell me which phosphorylation enrichment is on file for EYFDGYWEYSV [ITGA2B_Y265_G267E] ?
12

Could you tell me which phosphorylation enrichment is on file for DMLTLYVNTAA [SMCHD1_Y403_Q400L] ?
0.855

Could you tell me which phosphorylation enrichment is on file for RPYRPYIIRGM [LRP5_Y1531] ?
0.845

Could you tell me which phosphorylation enrichment is on file for QMVRMYASSFM [AVPR2_Y124_G122R_YF] ?
0.677

Could you tell me which phosphorylation enrichment is on file for NPETCYQRLKK [TK2_Y190] ?
0.545
